// activity coefficient lookup, one value per entry
Experiment: activity coefficient (dimensionless); of the first substance listed, at infinite dilution; xn = mol fraction of the nth substance listed
Settings: 313 K; 101.33 kPa; Liquid; Chromatography; x1 = 0
endpoint.name: activity coefficient

molecule	result.number
CCO [ethanol] + O=S(=O)([N-]S(=O)(=O)C(F)(F)F)C(F)(F)F.O=S(=O)([N-]S(=O)(=O)C(F)(F)F)C(F)(F)F.O=S(=O)([N-]S(=O)(=O)C(F)(F)F)C(F)(F)F.c1ccc2cc(-n3cc[n+](Cc4cc(C[n+]5ccn(-c6ccc7ccccc7c6)c5)cc(C[n+]5ccn(-c6ccc7ccccc7c6)c5)c4)c3)ccc2c1	0.927
O=Cc1ccccc1 [benzaldehyde] + O=S(=O)([N-]S(=O)(=O)C(F)(F)F)C(F)(F)F.O=S(=O)([N-]S(=O)(=O)C(F)(F)F)C(F)(F)F.O=S(=O)([N-]S(=O)(=O)C(F)(F)F)C(F)(F)F.c1ccc2cc(-n3cc[n+](Cc4cc(C[n+]5ccn(-c6ccc7ccccc7c6)c5)cc(C[n+]5ccn(-c6ccc7ccccc7c6)c5)c4)c3)ccc2c1	1
CC(C)O [propan-2-ol] + O=S(=O)([N-]S(=O)(=O)C(F)(F)F)C(F)(F)F.O=S(=O)([N-]S(=O)(=O)C(F)(F)F)C(F)(F)F.O=S(=O)([N-]S(=O)(=O)C(F)(F)F)C(F)(F)F.c1ccc2cc(-n3cc[n+](Cc4cc(C[n+]5ccn(-c6ccc7ccccc7c6)c5)cc(C[n+]5ccn(-c6ccc7ccccc7c6)c5)c4)c3)ccc2c1	1.89
CCCO [propan-1-ol] + O=S(=O)([N-]S(=O)(=O)C(F)(F)F)C(F)(F)F.O=S(=O)([N-]S(=O)(=O)C(F)(F)F)C(F)(F)F.O=S(=O)([N-]S(=O)(=O)C(F)(F)F)C(F)(F)F.c1ccc2cc(-n3cc[n+](Cc4cc(C[n+]5ccn(-c6ccc7ccccc7c6)c5)cc(C[n+]5ccn(-c6ccc7ccccc7c6)c5)c4)c3)ccc2c1	1.4
Cc1ccccc1 [toluene] + O=S(=O)([N-]S(=O)(=O)C(F)(F)F)C(F)(F)F.O=S(=O)([N-]S(=O)(=O)C(F)(F)F)C(F)(F)F.O=S(=O)([N-]S(=O)(=O)C(F)(F)F)C(F)(F)F.c1ccc2cc(-n3cc[n+](Cc4cc(C[n+]5ccn(-c6ccc7ccccc7c6)c5)cc(C[n+]5ccn(-c6ccc7ccccc7c6)c5)c4)c3)ccc2c1	3.82
Cc1ccc(C)cc1 [1,4-dimethylbenzene] + O=S(=O)([N-]S(=O)(=O)C(F)(F)F)C(F)(F)F.O=S(=O)([N-]S(=O)(=O)C(F)(F)F)C(F)(F)F.O=S(=O)([N-]S(=O)(=O)C(F)(F)F)C(F)(F)F.c1ccc2cc(-n3cc[n+](Cc4cc(C[n+]5ccn(-c6ccc7ccccc7c6)c5)cc(C[n+]5ccn(-c6ccc7ccccc7c6)c5)c4)c3)ccc2c1	4.47

All figures here come from the NIST ThermoML archive (doi:10.1021/acs.jced.8b00601).
